Protein target, amino acids: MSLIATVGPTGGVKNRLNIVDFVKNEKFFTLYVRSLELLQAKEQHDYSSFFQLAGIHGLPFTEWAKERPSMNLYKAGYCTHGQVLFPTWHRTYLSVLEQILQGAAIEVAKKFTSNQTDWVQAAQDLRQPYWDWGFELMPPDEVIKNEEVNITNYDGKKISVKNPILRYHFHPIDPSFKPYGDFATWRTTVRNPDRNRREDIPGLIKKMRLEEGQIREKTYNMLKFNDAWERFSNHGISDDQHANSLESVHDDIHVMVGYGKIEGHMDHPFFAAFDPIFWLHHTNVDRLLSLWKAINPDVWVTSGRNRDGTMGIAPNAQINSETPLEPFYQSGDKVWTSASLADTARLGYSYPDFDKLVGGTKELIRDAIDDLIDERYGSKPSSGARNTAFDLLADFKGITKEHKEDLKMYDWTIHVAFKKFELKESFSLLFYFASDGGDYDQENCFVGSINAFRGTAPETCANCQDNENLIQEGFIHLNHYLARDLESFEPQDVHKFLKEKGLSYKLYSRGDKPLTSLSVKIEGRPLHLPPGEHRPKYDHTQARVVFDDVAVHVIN
log10 of IC50 for the protein given by its sequence, merged from several publications.
Quantity name: log10 of IC50 (log10 of the value in µM)

1) C/C(=N/NC(N)=S)c1ccc(C(C)C)cc1
0.00
2) O=C(/C=C/c1ccc(O)cc1)c1ccc(NS(=O)(=O)c2ccc([N+](=O)[O-])cc2)cc1
1.18
3) CCCCCCCCOC(=O)CCc1ccc(O)cc1O
-0.15
4) COc1c(O)cccc1/C=C/C=O
2.41
5) C/C(CCc1ccc(OCCCC(=O)O)cc1)=N\NC(N)=S
-0.17
6) CC(=O)C1=C(C)NC(=S)NC1c1ccccc1O (stereo not drawn)
4.21
7) CC(C)=NNC(N)=S
-1.07
8) Oc1ccc(-c2nc3ccccc3s2)c(O)c1
-2.00
9) C/C=C/COC(=O)CCC(=O)c1cc(C)c(OCC)cc1C(C)C
2.39
10) CCCCCCc1ccc(O)cc1O
-0.01
11) Cc1ccc(-c2nnc(SCc3cc(=O)c(O)co3)n2NCc2ccccc2O)cc1
0.58
12) O=C(NO)Nc1ccc(C(F)(F)F)cc1
0.63
